assay.target: KIX domain of CBP (CBP-KIX, aa 586–672) (UniProt P45481 586-672)
Sequence (P45481 586-672): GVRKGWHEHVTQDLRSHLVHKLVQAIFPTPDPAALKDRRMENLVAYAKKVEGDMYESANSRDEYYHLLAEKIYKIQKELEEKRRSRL
test.description: ITC
assay.endpoint: pKd
# pKd is unitless: minus log10 of the molar concentration; print number only

Consider DLDLDMYMENLECDMDNIISDLMDEGEGLDFNFEPDP (domain or fragment, UniProt P98177 469-505, looked up) [FOXO4-CR3 (conserved region 3, transactivation domain of FOXO4, aa 469–505)] . Its measured pKd is 5.47

Reference source: paper PMC12698673
